system: HPPD polypeptides; assay: coupled HPPD activity assay: turnover and residual turnover in crude extracts; type: biochemical, Pseudomonas fluorescens; settings: presence of 100 μM Cmpd. 1; high substrate concentration; changes in absorbance (OD) at 320 nm
measure: Residual turnover

35 (protein, mutant HPPD polypeptide) MADLYENPMGLMGFEFIEFASPTPGTLEPIFEIMGFTKVATHRSKNVHLYRQGEINLILNNEPNSIASYFAAEHGPSVCGMAFRVKDSQKAYNRALELGAQPIHIDTGPMELNLPAIKGIGGAPLYLIDRFGEGSSIYDIDFVYLEGVERNPVGAGLKVIDHLTHNVYRGRMVYWANFYEKLFNFREARYFDIKGEYTGLTSKAMSAPDGMIRIPLNEESSKGAGQIEEFLMQFNGEGIQHVAFLTDDLVKTWDALKKIGMRFMTAPPDNYYEMLEGRLPDHGEPVDQLQARGILLDGSSVEGDKRLLLQIFSETLMGPVFFEFIQRKGDDGFGPHSFKVLFESVERDQVRRGVLTAD :: 0.023
21 (protein, mutant HPPD polypeptide) MADLYENPMGLMGFEFIEFASPTPGTLEPIFEIMGFTKVATHRSKNVHLYRQGEINLILNNEPNSIASYFAAEHGPSVCGMAFRVKDSQKAYNRALELGAQPIHIDTGPMELNLPAIKGIGGAPLYLIDRFGEGSSIYDIDFVYLEGVERNPVGAGLKVIDHLTHNVYRGRMVYWANFYEKLFNFREARYFDIKGEYTGLTSKAMSAPDGMIRIPLNEESSKGAGQIEEFLMQFNGEGIQHVAFLTDDLVKTWDALKKIGMRFMTAPADTYYEMLEGRLPDHGEPVDQLQARGILLDGSSVEGDKRLLLQIFSETLMGPVFFEFIQRKGDDGFGPDSFKVLFEQVERDQVRRGVLTAD :: 0.080

Values from patent US11180770B2
